I'd appreciate it if you could supply growth at 0.01 µM values for the items below.
- Tested on: NCI-H23
- METHOD_DESCRIPTION: Antiproliferative activity against human NCI-H23 cells assessed as cell growth at 10^-8 M after 48 hrs by sulforhodamine B assay
- Assay type: functional
- SETTINGS: NCI-H23, 48 h, read-out: Activity
Numbers only, in %.

[
  {
    "CHEMICAL_STRING": "CNC(=O)c1cc(Oc2ccc3nc(NC(=O)c4cc(C(F)(F)F)cc(C(F)(F)F)c4)sc3c2)ccn1",
    "growth at 0.01 µM (%)": 96
  },
  {
    "CHEMICAL_STRING": "CNC(=O)c1cc(Oc2ccc3nc(NC(=O)Nc4cc(C(F)(F)F)cc(C(F)(F)F)c4)sc3c2)ccn1",
    "growth at 0.01 µM (%)": 93
  },
  {
    "CHEMICAL_STRING": "CNC(=O)c1cc(Oc2ccc3nc(NC(=O)Nc4ccc(Cl)c(C(F)(F)F)c4)sc3c2)ccn1",
    "growth at 0.01 µM (%)": 100
  }
]

Turning now to a further record.
# input What value of growth at 0.01 µM on NCI-H23 does CNC(=O)c1cc(Oc2ccc3nc(NC(=O)Nc4ccc(Cl)c(Cl)c4)sc3c2)ccn1 have?
# output 95

----------
- METHOD_DESCRIPTION: Antiproliferative activity against human SF268 cells assessed as cell growth at 10^-5 M after 48 hrs by sulforhodamine B assay
- Assay type: functional
- SETTINGS: SF-268, 48 h, read-out: Activity
I'd appreciate it if you could supply growth at 10 µM values for the items below.
Numbers only, in %.

[
  {
    "CHEMICAL_STRING": "CNC(=O)c1cc(Oc2ccc3nc(NC(=O)c4cccc(F)n4)sc3c2)ccn1",
    "growth at 10 µM (%)": 89.6
  }
]

# per-item lookup of growth at 10 µM; items listed below
1. CNC(=O)c1cc(Oc2ccc3nc(NC(=O)c4cc(C(F)(F)F)cc(C(F)(F)F)c4)sc3c2)ccn1
2. CNC(=O)c1cc(Oc2ccc3nc(NC(=O)Nc4ccc(Cl)c(C(F)(F)F)c4)sc3c2)ccn1
3. CNC(=O)c1cc(Oc2ccc3nc(NC(=O)c4ccc5c(c4)OCCO5)sc3c2)ccn1
4. CNC(=O)c1cc(Oc2ccc3nc(NC(=O)c4ccc5ncccc5c4)sc3c2)ccn1
5. CNC(=O)c1cc(Oc2ccc3nc(NC(=O)Nc4ccc(C(F)(F)F)cc4)sc3c2)ccn1

# output
1. 11
2. 1
3. 96.6
4. 97.5
5. 65

----------
I'd appreciate it if you could supply growth at 0.1 µM values for the items below.
- Tested on: U-251
- METHOD_DESCRIPTION: Antiproliferative activity against human U251 cells assessed as cell growth at 10^-7 M after 48 hrs by sulforhodamine B assay
- Assay type: functional
- SETTINGS: U-251, 48 h, read-out: Activity
Numbers only, in %.

[
  {
    "CHEMICAL_STRING": "CNC(=O)c1cc(Oc2ccc3nc(NC(=O)Nc4ccc(Cl)c(Cl)c4)sc3c2)ccn1",
    "UNIT_INFO": "%",
    "growth at 0.1 µM": 99
  },
  {
    "CHEMICAL_STRING": "CNC(=O)c1cc(Oc2ccc3nc(NC(=O)Nc4cc(C(F)(F)F)cc(C(F)(F)F)c4)sc3c2)ccn1",
    "UNIT_INFO": "%",
    "growth at 0.1 µM": 106
  }
]

Turning now to a further record.
# input Can you share its growth at 0.1 µM? I mean this molecule: CNC(=O)c1cc(Oc2ccc3nc(NC(=O)c4cc(C(F)(F)F)cc(C(F)(F)F)c4)sc3c2)ccn1
# output 97
